Test system: KB
ASSAY INFO: Cytotoxic activity against vincristine-resistant human oral epidermoid carcinoma cell line (KB/VJ300)
Type: functional, cell-based
Rule: measured IC50 below 4 µg/mL gets true; anything equal to or greater than 4 µg/mL gets false.

CC[C@H]1C[C@H]2C[C@@]3(C(=O)OC)c4[nH]c5cc(OC)ccc5c4CCN(C2C#N)[C@@H]13 (stereo partly drawn) | true
COC(=O)[C@@]12C[C@@H]3C[C@H]([C@H](C)O)[C@@H]1N(CCc1c2[nH]c2ccccc12)C3 | false
COC(=O)[C@@]12C[C@H]3C[C@@H](C(C)=O)[C@@H]1NCCc1c2n(c2ccccc12)C3O (stereo partly drawn) | true
COC(=O)[C@@]12C[C@@H]3C[C@H]([C@@H](C)O)[C@@H]1N(CCc1c2[nH]c2ccccc12)C3 | true
CCC1C[C@H]2C[C@@]3(C(=O)OC)c4[nH]c5ccccc5c4CCN(C2=O)[C@@H]13 (stereo partly drawn) | false
CCOC1[C@H]2C[C@H](CC)[C@@H]3N1CCc1c([nH]c4ccccc14)[C@]3(C(=O)OC)C2 (stereo partly drawn) | false
CCOC1[C@H]2C[C@H]([C@@H](C)O)[C@@H]3N1CCc1c([nH]c4ccccc14)[C@]3(C(=O)OC)C2 (stereo partly drawn) | false
COC(=O)[C@]12C[C@H]3CC4[C@H](C)OCN(CCc5c1n(c1cc(OC)ccc51)C3=O)[C@@H]42 (stereo partly drawn) | false
